Quick list: ED Arec per entry.
- Tested on: Rattus norvegicus
- Assay Protocol: Dose producing […] rhythmic slow wave activity in anesthetized rats
- Type: functional
Attribute Measured: ED Arec

>>> measured_value("CO/N=C(\\C#N)[C@H]1CN2CC[C@H]1C2")
"0.0032 mg/kg"
>>> measured_value("CO/N=C(/C)C12CCCN(CC1)C2 (configuration not stated)")
"0.068 mg/kg"
>>> measured_value("CO/N=C(\\Cl)C12CCCN(CC1)C2 (configuration not stated)")
"0.032 mg/kg"
>>> measured_value("CO/N=C(\\C#N)C12CCN(CC1)C2")
"0.0056 mg/kg"
>>> measured_value("COC(=O)C1=CCCN(C)C1")
"0.32 mg/kg"
>>> measured_value("CO/N=C(\\C#N)[C@@H]1CN2CC[C@H]1C2")
"0.005 mg/kg"
>>> measured_value("CO/N=C(\\C#N)[C@@H]1CN2CCC1CC2")
">1 mg/kg"
